assay: Oral bioavailability (0 to last) in Wistar rat plasma at 10 mg/kg; format: ADME, organism-based
Readout label: bioavailability (%)
Answer with a number only, understood to be in %.

Example entries and their recorded answers appear below.
INSERT INTO results (smi, result_unit, numeric_readout) VALUES
  ('O=C(O)c1cc2occc2[nH]1', '%', 52),
  ('Oc1noc2cc(Cl)ccc12', '%', 28),
  ('O=C(O)c1cc2sccc2[nH]1', '%', 100),
  ('O=c1[nH]c2cccc(Cl)c2cc1O', '%', 1.4);

With those in mind, consider the next molecule.
Reported bioavailability of O=c1[nH]c2ccc(F)c(Cl)c2cc1O : 2

----------
assay: Plasma clearance in Swiss mouse plasma at 1 mg/kg, iv; assay type: ADME, organism-based; design: dose 1 mg/kg, route intravenous
Think of 20 mL/min/kg as a floor: if clearance stands on it or above, it is Satisfied; beneath it, Not satisfied.

Completed entries (count: 4):
INSERT INTO results (smi, group_label) VALUES
  ('O=C(O)c1cc2sccc2[nH]1', 'Satisfied'),
  ('O=c1[nH]c2cccc(Cl)c2cc1O', 'Satisfied'),
  ('O=C(O)c1cc2occc2[nH]1', 'Not satisfied'),
  ('Oc1noc2cc(Cl)ccc12', 'Not satisfied');

Threshold query (clearance >= 20 mL/min/kg) on O=c1[nH]c2ccc(F)c(Cl)c2cc1O
Satisfied

----------
assay: Tmax in Wistar rat brain at 10 mg/kg, po; type: ADME, organism-based; parameters: dose 10 mg/kg, route oral
Readout label: Tmax (min)
Provide only the numeric value, understood in min.

INSERT INTO assay_data (smi, numeric_readout) VALUES
  ('O=c1[nH]c2ccc(F)c(Cl)c2cc1O', 30);

According to the records, this compound O=C(O)c1cc2occc2[nH]1 displays Tmax of 30

Notebook: O=C(O)c1cc2sccc2[nH]1 , Tmax read as 60

Please fill in: Tmax reported for Oc1noc2cc(Cl)ccc12 = 30

----------
# T1/2 measurements, system: D-amino-acid oxidase (Homo sapiens)
# Sequence (P14920 whole entry, looked up): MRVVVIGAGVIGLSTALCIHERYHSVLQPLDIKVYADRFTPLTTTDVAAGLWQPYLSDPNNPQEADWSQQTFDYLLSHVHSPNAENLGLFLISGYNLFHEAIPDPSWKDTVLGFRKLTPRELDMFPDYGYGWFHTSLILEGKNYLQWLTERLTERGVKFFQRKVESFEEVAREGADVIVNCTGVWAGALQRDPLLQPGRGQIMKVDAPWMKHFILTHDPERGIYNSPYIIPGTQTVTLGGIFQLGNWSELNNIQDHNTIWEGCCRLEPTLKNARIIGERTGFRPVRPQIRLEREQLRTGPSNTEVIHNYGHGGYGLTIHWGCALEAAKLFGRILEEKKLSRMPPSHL

Consider the following illustrative entries.
INSERT INTO measurements (smi, tested_target, result) VALUES
  ('O=c1[nH]c2cccc(Cl)c2cc1O', 'D-amino-acid oxidase (Homo sapiens)', '> 120 min'),
  ('O=C(O)c1cc2sccc2[nH]1', 'D-amino-acid oxidase (Homo sapiens)', '10 min'),
  ('O=C(O)c1cc2occc2[nH]1', 'D-amino-acid oxidase (Homo sapiens)', '10 min');

Then this molecule:
Entry Oc1noc2cc(Cl)ccc12 ; T1/2 = 10 min

----------
assay: Volume of distribution in Wistar rat plasma at 1 mg/kg, iv; assay type: ADME, organism-based; set-up: dose 1 mg/kg, route intravenous
Readout label: Vd (L/kg)
Unit L/kg implied. Number only.

For record Oc1noc2cc(Cl)ccc12 the listed Vd is 0.3

----------
Property: Papp A→B; scope: individual compounds
test: Apparent permeability from apical to basolateral side of MDCK cells expressing MDR1 by LC-MS/MS analysis; assay type: ADME, cell-based, Canis lupus familiaris; conditions: dog
Number first, unit second.

INSERT INTO results (smi, result) VALUES
  ('Oc1noc2cc(Cl)ccc12', '75 ×10⁻⁶ cm/s');

Lab note: next compound to report on.
Documented Papp A→B of O=C(O)c1cc2sccc2[nH]1 : 6 ×10⁻⁶ cm/s

Data origin, for the record: ChEMBL document CHEMBL1828557
